Data credit: patent US12098148B2

- Assayed System: human KEAP1 (N-term, residues 321-609) (Homo sapiens, UniProt Q14145)
- Sequence (Q14145 321-609): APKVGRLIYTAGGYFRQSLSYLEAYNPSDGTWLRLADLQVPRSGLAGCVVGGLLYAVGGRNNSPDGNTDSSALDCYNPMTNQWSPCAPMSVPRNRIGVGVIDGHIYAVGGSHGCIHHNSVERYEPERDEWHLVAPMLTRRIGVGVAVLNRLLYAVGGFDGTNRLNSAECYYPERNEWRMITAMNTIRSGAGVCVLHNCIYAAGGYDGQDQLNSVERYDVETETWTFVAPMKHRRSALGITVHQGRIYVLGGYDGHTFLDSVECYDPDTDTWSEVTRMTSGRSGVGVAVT
- Protocol Summary: biochemical
Entries annotated with measured IC50
Output spec: scalar in nM, unitless text.

Recorded results for 2 molecules are shown here.
# Molecule, Value Measured
rows = [
    ("C[C@]1(C(=O)O)CCCC[C@H]1C(=O)N1CCc2c(Cl)ccc(OCc3nnc4n3CCCC4)c2[C@H]1CN1CC2(CC2)CC1=O [Example 186]", 5.6),
    ("Cn1nnc2c1CC(Oc1ccc(Cl)c3c1[C@@H](CN1CC4(CC4)CC1=O)N(C(=O)[C@@H]1CCCC[C@]1(C)C(=O)O)CC3)C2 (single isomer, unassigned; isomer 2) [Example 216]", 6.4),
]

// moving on: another record for IC50
Ask: Returns the measured IC50 for the input molecule. Input: C[C@H]1CCN(C[C@@H]2c3c(OCc4nnn(C)c4C(F)F)ccc(Cl)c3CCN2C(=O)[C@@H]2CCCC[C@]2(C)C(=O)O)C1=O [Example 115]
Result: 9.7

---

- Assayed System: human KEAP1 (N-term, residues 321-609) (Homo sapiens, UniProt Q14145)
- Protocol Summary: biochemical
pIC50: −log10 of the molar value.
Quick rule: pIC50 of at least 8 means 1, below that means -1.

# Compound, Assayed System, Class Label
records = [
    ("Cn1nnc(COc2ccc(Br)c3c2[C@@H](CN2Cc4ccccc4C2=O)N(C(=O)[C@@H]2CCCC[C@@H]2C(=O)O)CC3)c1C(F)F [Example 41]", "human KEAP1 (N-term, residues 321-609) (Homo sapiens, UniProt Q14145)", 1),
]

Ask: # bool: pIC50 of Cn1nnc(COc2ccc(Cl)c3c2[C@@H](CN2CC4(CC4)CC2=O)N(C(=O)[C@@H]2CCCO[C@@H]2C(=O)O)CC3)c1C(F)F [Example 226] >= 8
Result: 1

Ask: # bool: pIC50 of C[C@H]1CC(=O)N(C[C@@H]2c3c(OCc4nnn(C)c4C(F)F)ccc(Cl)c3CCN2C(=O)[C@@H]2CCC[C@]2(C)C(=O)O)C1 [Example 116] >= 8
Result: -1

Ask: # bool: pIC50 of Cn1nnc(COc2ccc(Br)c3c2[C@@H](CN2CC4(CC4)CC2=O)N(C(=O)[C@@H]2CCCC[C@]2(C)C(=O)O)CC3)c1C(F)F [Example 198] >= 8
Result: 1

Ask: # bool: pIC50 of O=C(O)[C@H]1CCCC[C@H]1C(=O)N1CCc2cccc(O[C@H]3CCN(C(=O)c4cncs4)C3)c2[C@H]1CN1C(=O)c2ccccc2C1=O [Example 6] >= 8
Result: 1

Ask: # bool: pIC50 of Cn1nnc(COc2ccc(Cl)c3c2[C@@H](CN2CCCC2=O)N(C(=O)C2CC(F)(F)CC2C(=O)O)CC3)c1C(F)F (stereo partly drawn) [Example 101] >= 8
Result: -1

Ask: # bool: pIC50 of CC1(C)CC(COc2ccc(Cl)c3c2[C@@H](CN2CC4(CC4)CC2=O)N(C(=O)[C@@H]2CCCC[C@]2(C)C(=O)O)CC3)=NO1 [Example 136] >= 8
Result: -1

Ask: # bool: pIC50 of C[C@]1(C(=O)O)CCCC[C@H]1C(=O)N1CCc2c(Cl)ccc(OCc3nnn4c3COCC4)c2[C@H]1CN1CC2(CC2)CC1=O [Example 189] >= 8
Result: 1

Ask: # bool: pIC50 of CC(Oc1ccc(Br)c2c1[C@@H](CN1Cc3ccccc3C1=O)N(C(=O)[C@@H]1CCCC[C@@H]1C(=O)O)CC2)c1cn(C(C)C)nn1 (single isomer, unassigned) [Example 46] >= 8
Result: -1

---

- Assayed System: human KEAP1 (N-term, residues 321-609) (Homo sapiens, UniProt Q14145)
- Protocol Summary: biochemical
Each record gets a class by IC50: interval 1 = under 6 nM, interval 2 = from 6 nM up to 8 nM, interval 3 = 8 nM and over

// known answers, use as guide
# Smiles Entry, Class Label
records = [
    ("Cn1nnc(COc2ccc(Cl)c3c2[C@@H](CN2CC4(CC4)CC2=O)N(C(=O)[C@@H]2CCCC[C@]2(C)C(=O)O)CC3)c1C1CC1", "interval 2"),
    ("Cn1nnc(COc2ccc(Cl)c3c2[C@@H](CN2CC4(CC4)CC2=O)N(C(=O)[C@@H]2CC(F)(F)CC[C@]2(C)C(=O)O)CC3)c1C(F)F", "interval 3"),
    ("C[C@@H]1CC(=O)N(C[C@@H]2c3c(OCc4nnn(C)c4C(F)(F)F)ccc(Cl)c3CCN2C(=O)[C@@H]2CCCC[C@]2(C)C(=O)O)C1", "interval 1"),
]

Ask: Any idea which band CCn1nnc(COc2ccc(Cl)c3c2[C@@H](CN2CCCC2=O)N(C(=O)[C@@H]2CCCC[C@@H]2C(=O)O)CC3)c1C(F)F is in?
Result: interval 2

Ask: Any idea which band O=C(O)[C@H]1CCCC[C@H]1C(=O)N1CCc2c(Cl)ccc(OCc3cncnc3)c2[C@H]1CN1CCCC1=O is in?
Result: interval 3

Ask: Any idea which band CC(=O)N1CC[C@H](Oc2ccc(Cl)c3c2[C@@H](CN2C(=O)c4ccccc4C2=O)N(C(=O)[C@@H]2CCCC[C@@H]2C(=O)O)CC3)C1 is in?
Result: interval 1

Ask: Any idea which band C[C@@H]1CCN(C[C@@H]2c3c(OCc4nnn(C)c4C(F)F)ccc(Cl)c3CCN2C(=O)[C@@H]2CCC[C@]2(C)C(=O)O)C1=O is in?
Result: interval 3

Ask: Any idea which band C[C@@H]1CC(=O)N(C[C@@H]2c3c(OCc4nnn(C)c4C4CC4)ccc(Cl)c3CCN2C(=O)[C@@H]2CCCC[C@]2(C)C(=O)O)C1 is in?
Result: interval 1

---

- Test system: NQO1 mRNA in BEAS-2B cells
- Protocol Summary: Beas2B NQO1 mRNA cell based assay
- Design: species or system human
- Condition Info: Homo sapiens, 24 h compound treatment, increase in NQO1 mRNA vs vehicle (0.1% DMSO), read-out: EC50
Quantity Kind: pEC50
Scale explanation: pEC50 corresponds to minus log10 of a concentration expressed in moles per litre.

Ask: Returns the measured pEC50 for the input compound. Input: Cc1cnn(C[C@@H]2c3c(OCc4nnn(C)c4C(F)F)ccc(Cl)c3CCN2C(=O)[C@@H]2CCCC[C@@H]2C(=O)O)c1
Result: 7.44

---

Entries annotated with measured IC50
- Assayed System: human KEAP1 (N-term, residues 321-609) (Homo sapiens, UniProt Q14145)
- Protocol Summary: biochemical
Output spec: scalar in nM, unitless text.

Recorded results for 2 molecules are shown here.
# Smiles Entry, Result Unit, IC50
data = [
    ("Cc1conc1COc1ccc(Cl)c2c1[C@@H](CN1CCCC1=O)N(C(=O)[C@@H]1CCCC[C@]1(C)C(=O)O)CC2", "nM", 6.3),
    ("Cn1cccc(COc2ccc(Cl)c3c2[C@@H](CN2CC4(CC4)CC2=O)N(C(=O)[C@@H]2CCCC[C@]2(C)C(=O)O)CC3)c1=O", "nM", 6.8),
]

// moving on: another record for IC50
Ask: Returns the measured IC50 for the input molecule. Input: Cn1nnc2cc(COc3cccc4c3[C@@H](CN3C(=O)c5ccccc5C3=O)N(C(=O)[C@@H]3CCCC[C@@H]3C(=O)O)CC4)ccc21
Result: 8.2

---

- Assayed System: human KEAP1 (N-term, residues 321-609) (Homo sapiens, UniProt Q14145);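 further: fluorescence polarization competition assay of Kelch domain binding to NRF2, 12-point 1:3 dilution series from 10 µM, read after 1 h at room temperature, floor 10 nM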
- Protocol Summary: biochemical
Entries annotated with measured pIC50
Scale explanation: pIC50 corresponds to minus log10 of a concentration expressed in moles per litre.

Recorded results for 5 compounds are shown here.
# Compound, pIC50
data = [
    ("CC(=O)N1CC[C@H](Oc2ccc(Br)c3c2[C@@H](CN2Cc4ccccc4C2=O)N(C(=O)[C@@H]2CCCC[C@@H]2C(=O)O)CC3)C1", 8.01),
    ("CC(C)n1cc(COc2ccc(C(F)(F)F)c3c2[C@@H](CN2Cc4ccccc4C2=O)N(C(=O)[C@@H]2CCCC[C@@H]2C(=O)O)CC3)nn1", 7.85),
    ("C[C@]1(C(=O)O)CCCC[C@H]1C(=O)N1CCc2c(Cl)ccc(OCc3noc4ccccc34)c2[C@H]1CN1CCCC1=O", 8.29),
    ("Cc1onc(COc2ccc(Cl)c3c2[C@@H](CN2CCCC2=O)N(C(=O)[C@@H]2CCCC[C@]2(C)C(=O)O)CC3)c1C", 8.08),
    ("C[C@H](CC(=O)O)C(=O)N1CCc2c(Cl)ccc(OCc3noc4ccccc34)c2[C@H]1CN1CCCC1=O", 8.32),
]

Ask: Returns the measured pIC50 for the input compound. Input: Cn1nnc(COc2ccc(Cl)c3c2[C@@H](CN2CCCC2=O)N(C(=O)C2C4CCC(C4)C2C(=O)O)CC3)c1C(F)F (stereo partly shown)
Result: 7.74

Ask: Returns the measured pIC50 for the input compound. Input: C[C@@H]1CC(=O)N(C[C@@H]2c3c(OCc4nnn(C)c4C(F)F)ccc(Cl)c3CCN2C(=O)[C@H]2CCCC[C@]2(C)C(=O)O)C1
Result: 7.55

Ask: Returns the measured pIC50 for the input compound. Input: Cn1nnc(COc2ccc(Cl)c3c2[C@@H](CN2CC4(CC4)CC2=O)N(C(=O)[C@@H]2CCCC[C@]2(C)C(=O)O)CC3)c1C(F)(F)F
Result: 8.30

Ask: Returns the measured pIC50 for the input compound. Input: C[C@@H]1CCN(C[C@@H]2c3c(OCc4nnn(C)c4C(F)F)ccc(Cl)c3CCN2C(=O)[C@@H]2CCCC[C@]2(C)C(=O)O)C1=O
Result: 8.03

Ask: Returns the measured pIC50 for the input compound. Input: COCc1c(COc2ccc(Cl)c3c2[C@@H](CN2CCCC2=O)N(C(=O)[C@@H]2CCCC[C@]2(C)C(=O)O)CC3)nnn1C
Result: 8.15

Ask: Returns the measured pIC50 for the input compound. Input: Cc1onc(COc2ccc(Cl)c3c2[C@@H](CN2CC4(CC4)CC2=O)N(C(=O)[C@@H]2CCCC[C@]2(C)C(=O)O)CC3)c1C(F)F
Result: 8.23

Ask: Returns the measured pIC50 for the input compound. Input: Cc1nnc(COc2ccc(Br)c3c2[C@@H](CN2Cc4ccccc4C2=O)N(C(=O)[C@@H]2CCCC[C@@H]2C(=O)O)CC3)o1
Result: 7.96

Ask: Returns the measured pIC50 for the input compound. Input: C[C@@H]1CC(=O)N(C[C@@H]2c3c(OCc4nnn(C)c4C(F)F)ccc(Cl)c3CCN2C(=O)[C@@H]2CCCC[C@]2(C)C(=O)O)C1
Result: 8.21
